tested on: Enterobacter cloacae (clinical isolate); assay: Antibacterial microdilution (MIC/MBC); type: cell-based; details: Enterobacter cloacae; En.cl (En. cloacae)
Reported Property: MBC (µg/mL)
Note: unit µg/mL is implicit; provide only the numeric part.

Some compounds with recorded MBC:
Compound: COC(=O)c1[nH]c2ccccc2c1/C=C1\SC(=S)N(c2ccc(O)cc2)C1=O
MBC (µg/mL): 30

Compound: COC(=O)c1[nH]c2ccc(F)cc2c1/C=C1\SC(=S)N(CCC(=O)O)C1=O
MBC (µg/mL): 30

Compound: COC(=O)c1[nH]c2cc(OC)ccc2c1/C=C1\SC(=S)N(c2cccc(F)c2)C1=O
MBC (µg/mL): 30

Which MBC value is on record for COC(=O)c1[nH]c2ccc(F)cc2c1/C=C1\SC(=S)N(c2ccc(O)cc2)C1=O ? 60

====

Recorded measurements of MIC, one per entry
tested on: Salmonella typhimurium (ATCC 13311); assay: Antibacterial microdilution (MIC/MBC); format: cell-based; conditions: Salmonella enterica; S.t. (S. typhimurium); read-out: MIC
Note: unit µg/mL is implicit; provide only the numeric part.

Compound: COC(=O)c1[nH]c2ccc(F)cc2c1/C=C1\SC(=S)N(CCCC(=O)O)C1=O [Compound 9]
Measure Unit: µg/mL
MIC: 30

Which MIC value is on record for COC(=O)c1[nH]c2ccccc2c1/C=C1\SC(=S)N(N2CCOCC2)C1=O [Compound 6] ? 30

Can you handle COC(=O)c1[nH]c2cc(OC)ccc2c1/C=C1\SC(=S)N(c2cccc(F)c2)C1=O [Compound 13] next? 30

====

Recorded measurements of MIC, one per entry
system: Escherichia coli (ATCC 35210); assay: Antibacterial microdilution (MIC/MBC); type: cell-based; conditions: Escherichia coli, ATCC35210; E. coli; read-out: MIC

Which MIC value is on record for COC(=O)c1[nH]c2cc(OC)ccc2c1/C=C1\SC(=S)N(c2cccc(F)c2)C1=O [Compound 13] ? 45 µg/mL

Can you handle COC(=O)c1[nH]c2ccccc2c1/C=C1\SC(=S)N(c2ccc(O)cc2)C1=O [Compound 4] next? 45 µg/mL

Can you handle [H]/N=C(/N)N[C@H]1[C@H](O)[C@@H](O)[C@H](O[C@@H]2O[C@@H](C)[C@](O)(C=O)[C@H]2O[C@@H]2O[C@@H](CO)[C@H](O)[C@@H](O)[C@@H]2NC)[C@@H](N/C(N)=N\[H])[C@@H]1O [Streptomycin, reference compound] next? 100 µg/mL

Can you handle COC(=O)c1[nH]c2ccccc2c1/C=C1\SC(=S)N(c2ccc(C(=O)O)cc2)C1=O [Compound 2] next? 22 µg/mL

====

Recorded measurements of MIC, one per entry
test system: Aspergillus versicolor (ATCC 11730)

Compound: COC(=O)c1[nH]c2ccc(F)cc2c1/C=C1\SC(=S)N(c2ccc(O)cc2)C1=O [Compound 10]
MIC: 8 µg/mL

Compound: c1ccc(-c2ccc(C(c3ccccc3)n3ccnc3)cc2)cc1 (centres unmarked) [Bifonazole, reference compound]
MIC: 100 µg/mL

Compound: COC(=O)c1[nH]c2ccccc2c1/C=C1\SC(=S)N(C(C(=O)O)C(C)C)C1=O (centres unmarked) [Compound 12]
MIC: 8 µg/mL

Compound: COC(=O)c1[nH]c2cc(OC)ccc2c1/C=C1\SC(=S)N(c2cccc(F)c2)C1=O [Compound 13]
MIC: 15 µg/mL

Which MIC value is on record for COC(=O)c1[nH]c2ccc(F)cc2c1/C=C1\SC(=S)N(C(C(=O)O)C(C)C)C1=O (centres unmarked) [Compound 8] ? 15 µg/mL

Can you handle COC(=O)c1[nH]c2ccc(F)cc2c1/C=C1\SC(=S)N(CCC(=O)O)C1=O [Compound 14] next? 15 µg/mL

Can you handle COC(=O)c1[nH]c2ccc(F)cc2c1/C=C1\SC(=S)N(C)C1=O [Compound 15] next? 8 µg/mL

Can you handle COC(=O)c1[nH]c2ccccc2c1/C=C1\SC(=S)N(CCCN2CCOCC2)C1=O [Compound 5] next? 8 µg/mL
